Measured mPPB (% free), listed per entry for reference.
Test: Plasma protein binding assay, mouse plasma (mPPB)
Type: in vitro ADME
Details: 5 μM, equilibrium dialysis 4 hours 37° C.
Procedure: Plasma Protein Binding Assay The plasma protein binding was determined by the equilibrium dialysis method. A known concentration of compound (5 μM) in previously frozen human or mouse plasma (Sera Labs) was dialysed against phosphate buffer using a RED device (Life Technologies) for 4 hours at 37° C. The concentration of compound in the protein containing (PC) and protein free (PF) sides of the dialysis membrane were determined by LC-MS/MS and the % free compound was determined by equation 4. […]

| COMPOUND | mPPB (% free) |
| --- | --- |
| O=C1CCc2c(Oc3ccc4c(c3)CC(c3nc5cc(Cl)ccc5[nH]3)CO4)ccnc2N1 (stereo not shown) [Compound 25] | 1.5 |
| O=C1CCc2c(Oc3ccc4c(c3)CC(c3nc(-c5cc(F)ccc5F)c[nH]3)CO4)ccnc2N1 (stereo not shown) [Compound 5] | 0.4 |
| O=C1CCc2c(Oc3ccc4c(c3)CC(c3nc5cc(C(F)(F)F)ncc5[nH]3)CO4)ccnc2N1 (racemic) [Compound 32] | 3.2 |
| Cc1ccc(-c2c[nH]c(C3COc4ccc(Oc5ccnc6c5CCC(=O)N6)cc4C3)n2)cc1 (stereo not shown) [Compound 9] | 0.4 |
| N#Cc1ccc(-c2c[nH]c(C3COc4ccc(Oc5ccnc6c5CCC(=O)N6)cc4C3)n2)cc1 (stereo not shown) [Compound 21] | 1.6 |
| CN(C)Cc1cc(-c2c[nH]c(C3COc4ccc(Oc5ccnc6c5CCC(=O)N6)cc4C3)n2)cc(C(F)(F)F)c1 (stereo not shown) [Compound 7] | 0.9 |
| O=C1CCc2c(Oc3ccc4c(c3)CN(C(=O)Nc3ccc(C(F)(F)F)cc3)CC4)ccnc2N1 [Compound 47] | 0.3 |
